Target: OsWOX13 (Oryza sativa, UniProt Q5QMM3 1-267)
Sequence: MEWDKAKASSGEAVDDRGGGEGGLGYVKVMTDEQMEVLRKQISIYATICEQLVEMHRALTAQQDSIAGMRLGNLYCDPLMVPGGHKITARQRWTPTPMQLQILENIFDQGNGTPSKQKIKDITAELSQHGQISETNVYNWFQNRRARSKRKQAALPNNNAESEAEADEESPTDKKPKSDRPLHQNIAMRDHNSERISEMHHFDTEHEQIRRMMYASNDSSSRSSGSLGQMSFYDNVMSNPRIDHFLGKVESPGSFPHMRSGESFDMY
Test: protein-binding microarray (RPBM); PBS, 2% BSA, 51.3 ng/ul salmon testes DNA, 50 uM zinc acetate, 200 nM TF, 25 C, 1 h; high values mean tight binding
Details: protein: recombinant; tags: N-terminal polyhistidine and DsRed monomer fusion (pET32a); label: CyDye5-dUTP incorporated in the synthesized complementary strand; 3' TTTTT single-stranded linker to array surface; dsDNA, one strand shown
Over roughly 35,000 sequences, “fluorescence intensity (a.u.)” has its median near 10,000; the highest 2% begin near 52,000. The full list was thinned out, with the highest values kept by preference.
Here, each record is paired with measured binding signal data.

Solved cases below.
AGAAAATTTAATCTTAAATATGGACATTACGAATGTACAACGGAGTCACCTAGTGCAG: 4110 fluorescence intensity (a.u.)
TTAATTGATCACATATTAATGGGCAACGCTGTTTTCCATGCGGAGTCACCTAGTGCAG: 63600 fluorescence intensity (a.u.)
CTCAAATTATTGTTAAACCTTCATATAAATCGACCCCAATCGGAGTCACCTAGTGCAG: 7650 fluorescence intensity (a.u.)
ATAACGAACGGATGAGATTGATCGCTACAATACTCTAGAGCGGAGTCACCTAGTGCAG: 4050 fluorescence intensity (a.u.)
TCTAGAGAATTAGCCCTGATTATAATGTGAGACTTTGCATCGGAGTCACCTAGTGCAG: 4870 fluorescence intensity (a.u.)

We now examine a further sequence.
# binding signal lookup, item `ACATTTGTGATTTTCCTAGGTAATGGTGAGATTTTATAGGCGGAGTCACCTAGTGCAG` 3220 fluorescence intensity (a.u.)
